# solubility thermodynamic at 24 h per record follows
# method_notes: Saturated solubility of the compound in fasted state simulated intestinal fluid after 24 hrs by shaking flask method
# Format: ADME
# condition_details: fasted state simulated intestinal fluid (FaSSIF)
test_readout: solubility thermodynamic at 24 h (µg/mL)

compound | numeric_value
CNS(=O)(=O)Nc1cccc(Cc2c(C)c3ccc(Oc4ncccn4)cc3oc2=O)c1F | 5.5
CNS(=O)(=O)Nc1nccc(Cc2c(C)c3ccc(Oc4ncccn4)cc3oc2=O)c1F [AVUTOMETINIB] | 2.7

---

# method_notes: Intrinsic clearance in human liver microsomes at 5 uM by LC/MS/MS analysis
# Type: ADME
# condition_details: read-out: CLH

smiles_repr | microsomal CLint at 5 µM
CNS(=O)(=O)Nc1cccc(Cc2c(C)c3ccc(OC(=O)N(C)C)cc3oc2=O)n1 | 7 µL/min/mg
CNS(=O)(=O)Nc1cccc(Cc2c(C)c3cc(C)c(OC(=O)N(C)C)cc3oc2=O)c1 | 17 µL/min/mg
CNS(=O)(=O)Nc1cccc(Cc2c(C)c3ccc(OC(=O)N(C)C)cc3oc2=O)c1 | 20 µL/min/mg
CNS(=O)(=O)Nc1nccc(Cc2c(C)c3ccc(Oc4ncccn4)cc3oc2=O)c1F | 0.5 µL/min/mg
CNS(=O)(=O)Nc1cccc(Cc2c(C)c3ccc(OC(=O)N(C)C)nc3oc2=O)c1 | 3 µL/min/mg
CNS(=O)(=O)Nc1cccc(Cc2c(C)c3ccc(Oc4ncccn4)cc3oc2=O)c1F | 6.7 µL/min/mg
CNS(=O)(=O)Nc1cc(Cc2c(C)c3ccc(OC(=O)N(C)C)cc3oc2=O)ccn1 | 6 µL/min/mg

---

# tested_system: RAF proto-oncogene serine/threonine-protein kinase (Homo sapiens)
# Sequence (P04049 whole entry, the tested form may be a part): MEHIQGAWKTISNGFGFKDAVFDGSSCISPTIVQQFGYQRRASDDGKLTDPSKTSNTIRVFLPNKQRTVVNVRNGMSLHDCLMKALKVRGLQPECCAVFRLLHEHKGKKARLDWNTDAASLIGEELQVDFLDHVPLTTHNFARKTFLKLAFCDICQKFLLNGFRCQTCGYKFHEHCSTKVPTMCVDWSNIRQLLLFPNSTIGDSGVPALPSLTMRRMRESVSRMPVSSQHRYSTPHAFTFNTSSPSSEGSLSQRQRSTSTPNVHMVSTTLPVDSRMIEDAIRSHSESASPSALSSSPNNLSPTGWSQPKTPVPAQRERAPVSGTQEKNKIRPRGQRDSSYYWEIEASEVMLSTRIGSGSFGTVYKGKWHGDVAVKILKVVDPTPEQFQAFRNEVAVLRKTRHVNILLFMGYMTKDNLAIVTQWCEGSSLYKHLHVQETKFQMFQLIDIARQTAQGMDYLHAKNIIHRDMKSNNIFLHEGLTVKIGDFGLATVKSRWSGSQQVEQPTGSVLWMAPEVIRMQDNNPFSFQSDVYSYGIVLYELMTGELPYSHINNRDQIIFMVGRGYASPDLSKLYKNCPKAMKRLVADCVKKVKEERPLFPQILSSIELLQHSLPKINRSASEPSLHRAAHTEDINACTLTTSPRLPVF
# method_notes: Inhibition of truncated active C-Raf (unknown origin) assessed as MEK1 phosphorylation using inactive MEK1 K97R as substrate after 45 mins
pIC50: −log10 of the molar value.
Assign Criterion met whenever pIC50 does not fall below 7; assign Criterion not met whenever it does.

smiles_repr | classification
CNS(=O)(=O)Nc1nccc(Cc2c(C)c3ccc(Oc4ccccc4)cc3oc2=O)c1F | Criterion met
CNS(=O)(=O)Nc1cncc(Cc2c(C)c3ccc(OC(=O)N(C)C)cc3oc2=O)c1 | Criterion not met
CNS(=O)(=O)Nc1cc(Cc2c(C)c3ccc(OC(=O)N(C)C)cc3oc2=O)ccn1 | Criterion met
CNS(=O)(=O)Nc1nccc(Cc2c(C)c3ccc(Oc4cnccn4)cc3oc2=O)c1F | Criterion met
CNS(=O)(=O)Nc1cccc(Nc2c(C)c3ccc(Oc4ncccn4)cc3oc2=O)c1 | Criterion not met
CNS(=O)(=O)Nc1ccnc(Cc2c(C)c3cc(C)c(OC(=O)N(C)C)cc3oc2=O)c1 | Criterion not met
CNS(=O)(=O)Nc1nccc(Cc2c(C)c3ccc(Oc4ncccn4)cc3oc2=O)c1F | Criterion met
CNS(=O)(=O)Nc1cccc(Cc2c(C)c3ccc(OC(=O)N(C)C)nc3oc2=O)c1 | Criterion not met

---

# tested_system: Cytochrome P450 3A4 (Homo sapiens)
# method_notes: Inhibition of CYP3A4 in human liver microsomes using midazolam as substrate measured after 30 mins preincubation by LC-MS/MS analysis in absence of NADPH
# Type: ADME

smiles_repr | bound_sign | IC50 [µM]
CNS(=O)(=O)Nc1cccc(Cc2c(C)c3ccc(OC(=O)N(C)C)cc3oc2=O)c1 | = | 13
CNS(=O)(=O)Nc1cccc(Cc2c(C)c3ccc(Oc4ncccn4)cc3oc2=O)c1F | = | 26
CNS(=O)(=O)Nc1cc(Cc2c(C)c3ccc(OC(=O)N(C)C)cc3oc2=O)ccn1 | > | 100
CNS(=O)(=O)Nc1nccc(Cc2c(C)c3ccc(Oc4ncccn4)cc3oc2=O)c1F | > | 100

---

# method_notes: Bioavailability in BALB-nu/nu mouse at 2.5 mg/kg, iv and 5 mg/kg, po by LC-MS/MS analysis
# Assay type: ADME, organism-based
# condition_details: in vivo
# bioavailability per record follows

molecule | unit_spec | bioavailability
CNS(=O)(=O)Nc1cccc(Cc2c(C)c3ccc(Oc4ncccn4)cc3oc2=O)c1F | % | 75
CNS(=O)(=O)Nc1nccc(Cc2c(C)c3ccc(Oc4ncccn4)cc3oc2=O)c1F [AVUTOMETINIB] | % | 93

---

# tested_system: Cytochrome P450 3A4 (Homo sapiens, UniProt P08684)
# Sequence (P08684 whole entry): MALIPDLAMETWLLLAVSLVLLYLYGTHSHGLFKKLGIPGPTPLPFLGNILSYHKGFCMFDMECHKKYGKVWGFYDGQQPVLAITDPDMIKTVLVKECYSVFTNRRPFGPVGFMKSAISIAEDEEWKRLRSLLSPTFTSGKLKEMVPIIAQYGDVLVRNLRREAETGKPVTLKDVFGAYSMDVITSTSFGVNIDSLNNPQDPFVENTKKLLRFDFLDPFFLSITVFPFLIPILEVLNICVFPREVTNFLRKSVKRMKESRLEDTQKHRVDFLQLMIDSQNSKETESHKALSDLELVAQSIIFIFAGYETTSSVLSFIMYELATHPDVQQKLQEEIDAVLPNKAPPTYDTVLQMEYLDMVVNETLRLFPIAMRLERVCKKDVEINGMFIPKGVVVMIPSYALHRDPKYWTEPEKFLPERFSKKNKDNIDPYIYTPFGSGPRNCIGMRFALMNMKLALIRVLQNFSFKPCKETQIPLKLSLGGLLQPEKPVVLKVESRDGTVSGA
# method_notes: Inhibition of CYP3A4 in human liver microsomes using midazolam as substrate measured after 30 mins preincubation by LC-MS/MS analysis in presence of NADPH
# Assay type: ADME
# IC50 per record follows
test_readout: IC50 (µM)

smiles_repr | bound_sign | numeric_value
CNS(=O)(=O)Nc1cc(Cc2c(C)c3ccc(OC(=O)N(C)C)cc3oc2=O)ccn1 | > | 100
CNS(=O)(=O)Nc1cccc(Cc2c(C)c3ccc(OC(=O)N(C)C)cc3oc2=O)c1 | = | 5.6
CNS(=O)(=O)Nc1nccc(Cc2c(C)c3ccc(Oc4ncccn4)cc3oc2=O)c1F | > | 100
CNS(=O)(=O)Nc1cccc(Cc2c(C)c3ccc(Oc4ncccn4)cc3oc2=O)c1F | = | 11

---

# method_notes: Supersaturated solubility of the compound in fasted state simulated intestinal fluid after 4 hrs by miniscale dissolution test
# Type: ADME
# condition_details: fasted state simulated intestinal fluid (FaSSIF)

smiles_repr | solubility at 4 h, µg/mL
CNS(=O)(=O)[N-]c1nccc(Cc2c(C)c3ccc(Oc4ncccn4)cc3oc2=O)c1F.[K+] | 57
CNS(=O)(=O)[N-]c1cccc(Cc2c(C)c3ccc(Oc4ncccn4)cc3oc2=O)c1F.[K+] | 12

---

# IC50 per record follows
# tested_system: Cytochrome P450 2C9 (Homo sapiens, UniProt P11712)
# Sequence (P11712 whole entry): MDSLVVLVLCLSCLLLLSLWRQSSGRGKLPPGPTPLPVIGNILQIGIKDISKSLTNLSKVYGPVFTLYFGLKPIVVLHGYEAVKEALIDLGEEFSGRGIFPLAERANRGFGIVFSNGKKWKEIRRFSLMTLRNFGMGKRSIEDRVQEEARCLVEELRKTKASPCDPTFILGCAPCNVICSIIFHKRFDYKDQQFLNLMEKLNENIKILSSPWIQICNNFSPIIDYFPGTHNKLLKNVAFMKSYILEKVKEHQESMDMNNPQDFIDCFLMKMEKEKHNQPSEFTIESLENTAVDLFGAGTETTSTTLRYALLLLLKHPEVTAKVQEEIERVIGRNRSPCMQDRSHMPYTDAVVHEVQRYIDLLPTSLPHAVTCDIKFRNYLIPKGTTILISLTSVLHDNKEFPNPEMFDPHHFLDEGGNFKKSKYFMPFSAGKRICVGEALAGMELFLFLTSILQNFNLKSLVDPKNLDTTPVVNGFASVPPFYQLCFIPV
# method_notes: Inhibition of CYP2C9 in human liver microsomes using diclofenac as substrate measured after 30 mins preincubation by LC-MS/MS analysis in presence of NADPH
# Assay type: ADME
test_readout: IC50

smiles_repr | test_readout | result
CNS(=O)(=O)Nc1cccc(Cc2c(C)c3ccc(OC(=O)N(C)C)cc3oc2=O)c1 | IC50 | 96 µM
CNS(=O)(=O)Nc1cccc(Cc2c(C)c3ccc(Oc4ncccn4)cc3oc2=O)c1F | IC50 | 19 µM
CNS(=O)(=O)Nc1cc(Cc2c(C)c3ccc(OC(=O)N(C)C)cc3oc2=O)ccn1 | IC50 | > 100 µM
CNS(=O)(=O)Nc1nccc(Cc2c(C)c3ccc(Oc4ncccn4)cc3oc2=O)c1F | IC50 | 60 µM

---

# method_notes: Dissociation constant, pKa of the compound at 10 mM by spectroscopic titration analysis
# Assay type: physicochemical

smiles_repr | pKa at 10000 µM
CNS(=O)(=O)Nc1nccc(Cc2c(C)c3ccc(Oc4ncccn4)cc3oc2=O)c1F | 7.02
CNS(=O)(=O)Nc1cccc(Cc2c(C)c3ccc(Oc4ncccn4)cc3oc2=O)c1F | 8.86

---

# method_notes: Bioavailability in cynomolgus monkey at 2.5 mg/kg, iv and 5 mg/kg, po by LC-MS/MS analysis
# Format: ADME, organism-based, Macaca fascicularis
# condition_details: in vivo
# bioavailability per record follows

compound | unit_spec | bioavailability
CNS(=O)(=O)Nc1nccc(Cc2c(C)c3ccc(Oc4ncccn4)cc3oc2=O)c1F [AVUTOMETINIB] | % | 82
CNS(=O)(=O)Nc1cccc(Cc2c(C)c3ccc(Oc4ncccn4)cc3oc2=O)c1F | % | 59

---

# pIC50 per record follows
# tested_system: Dual specificity mitogen-activated protein kinase kinase 1 (Homo sapiens, UniProt Q02750, S218E/S222E)
# Sequence (Q02750 whole entry S218E/S222E): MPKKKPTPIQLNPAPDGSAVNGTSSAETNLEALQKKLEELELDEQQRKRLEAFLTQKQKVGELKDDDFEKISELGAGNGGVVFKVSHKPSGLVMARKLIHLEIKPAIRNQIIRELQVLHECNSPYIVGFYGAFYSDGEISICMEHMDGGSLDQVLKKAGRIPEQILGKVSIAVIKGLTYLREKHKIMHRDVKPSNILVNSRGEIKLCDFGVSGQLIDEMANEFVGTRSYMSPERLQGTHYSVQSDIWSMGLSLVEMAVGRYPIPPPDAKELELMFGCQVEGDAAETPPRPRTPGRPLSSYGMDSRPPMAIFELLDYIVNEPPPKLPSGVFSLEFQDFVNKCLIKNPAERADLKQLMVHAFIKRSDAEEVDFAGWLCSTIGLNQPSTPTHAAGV
# method_notes: Inhibition of constitutively active MEK1 S218E,S222E mutant (unknown origin) assessed as MAP kinase 2/Erk2-mediated FAM-Erktide phosphorylation using MAP kinase 2/Erk2 as substrate preincubated for 30 mins by IMAP fluorescence polarization assay
pIC50: −log10 of the molar value.
test_readout: pIC50

smiles_repr | bound_sign | numeric_value
CNS(=O)(=O)Nc1cccc(Cc2c(C)c3ccc(OC(=O)N(C)C)nc3oc2=O)c1 | = | 6.36
CNS(=O)(=O)Nc1cncc(Cc2c(C)c3ccc(OC(=O)N(C)C)cc3oc2=O)c1 | < | 4.30
CNS(=O)(=O)Nc1nccc(Cc2c(C)c3ccc(Oc4ccccc4)cc3oc2=O)c1F | = | 7.12
CNS(=O)(=O)Nc1nccc(Cc2c(C)c3ccc(Oc4cnccn4)cc3oc2=O)c1F | = | 6.19
CNS(=O)(=O)Nc1cccc(Nc2c(C)c3ccc(Oc4ncccn4)cc3oc2=O)c1 | < | 4.30
CNS(=O)(=O)Nc1nccc(Cc2c(C)c3ccc(Oc4ccccn4)cc3oc2=O)c1F | = | 6.72
CNS(=O)(=O)Nc1cccc(Cc2c(C)c3ccc(OC(=O)N(C)C)cc3oc2=O)n1 | = | 6.96
CNS(=O)(=O)Nc1cccc(Cc2c(C)c3cc(C)c(OC(=O)N(C)C)cc3oc2=O)c1 | = | 7.54
CNS(=O)(=O)Nc1ccnc(Cc2c(C)c3cc(C)c(OC(=O)N(C)C)cc3oc2=O)c1 | = | 4.43
CNS(=O)(=O)Nc1cccc(Cc2c(C)c3ccc(OC(=O)N(C)C)cc3oc2=O)c1 | = | 6.96
CNS(=O)(=O)Nc1cc(Cc2c(C)c3ccc(OC(=O)N(C)C)cc3oc2=O)ccn1 | = | 7.00
CNS(=O)(=O)Nc1cccc(Cc2c(C)c3ccc(Oc4ncccn4)cc3oc2=O)c1F | = | 7.01

These data points were gathered from ChEMBL document CHEMBL3259729.
